Documented pKi across a set of molecules
# System Under Test: human vasopressin V1b receptor (Homo sapiens)
# Sequence (P47901 whole entry): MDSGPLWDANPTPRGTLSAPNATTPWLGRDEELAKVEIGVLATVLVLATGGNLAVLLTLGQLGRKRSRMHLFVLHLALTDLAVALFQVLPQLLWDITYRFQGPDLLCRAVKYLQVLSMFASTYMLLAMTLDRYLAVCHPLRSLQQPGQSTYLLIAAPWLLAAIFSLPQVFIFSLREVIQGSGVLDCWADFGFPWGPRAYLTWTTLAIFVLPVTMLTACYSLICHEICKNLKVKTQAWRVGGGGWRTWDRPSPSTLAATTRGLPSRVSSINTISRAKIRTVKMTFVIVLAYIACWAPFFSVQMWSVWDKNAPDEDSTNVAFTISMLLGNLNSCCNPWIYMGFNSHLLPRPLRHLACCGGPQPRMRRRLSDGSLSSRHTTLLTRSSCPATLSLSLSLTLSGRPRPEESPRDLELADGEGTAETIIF
pKi: −log10 of the molar value.

Reference set (3 entries):
# Molecule, pKi
rows = [
    ("CCNCc1ccc(OC)c(C2(N3CCC[C@H]3c3ncco3)C(=O)N(S(=O)(=O)c3ccc(OC)cc3)c3cc(Cl)c(Cl)cc32)c1 (stereo partly shown)", "7.00 to 8.00"),
    ("COc1cc(CN(C)C)ccc1C1(N2CCC[C@H]2c2ncco2)C(=O)N(S(=O)(=O)c2ccc(C#N)cc2)c2ccc(Cl)cc21 (stereo partly shown)", "7.00 to 8.00"),
    ("COc1ccc(S(=O)(=O)N2C(=O)C(c3cc(CN(C)C)ccc3OC)(N3CCC[C@H]3c3ncco3)c3ccc(Cl)cc32)cc1 (stereo partly shown)", "6.00 to 7.00"),
]

Endpoint output: pKi of CCCNCc1ccc(OC)c(C2(N[C@@H](C)c3ncco3)C(=O)N(S(=O)(=O)c3ccc(OC)cc3)c3ccc(Cl)cc32)c1 (stereo partly shown) . Value?
7.00 to 8.00

Can you handle COc1ccc(CN2CCN(C)CC2)cc1C1(N2CCC[C@H]2c2ncco2)C(=O)N(S(=O)(=O)c2ccccc2)c2ccc(Cl)cc21 (stereo partly shown) next?
6.00 to 7.00

Thanks! And COc1ccc(S(=O)(=O)N2C(=O)C(c3cc(CNC(C)(C)C)ccc3OC)(N3CCC[C@H]3c3ncco3)c3cc(Cl)c(Cl)cc32)cc1 (stereo partly shown) ?
7.00 to 8.00

What do you get for COc1ccc(S(=O)(=O)N2C(=O)C(c3cc(CN4CCN(CCO)CC4)ccc3OC)(N3CCC[C@@]3(C)c3ncco3)c3cc(Cl)ccc32)cc1 (stereo partly shown) ?
> 8.00

Also COc1ccc(S(=O)(=O)N2C(=O)C(c3cc(CN4CCNCC4)ccc3OC)(N3CCC[C@H]3c3ncco3)c3cc(Cl)ccc32)cc1 (stereo partly shown) , if possible.
> 8.00

Another molecule to check: CCNCc1ccc(OC)c(C2(N3CCC[C@H]3c3ncco3)C(=O)N(S(=O)(=O)c3ccc(OC)cc3)c3ccc(Cl)cc32)c1 (stereo partly shown)
> 8.00

Now consider COc1ccc(S(=O)(=O)N2C(=O)C(c3cc(CN4CCNCC4)ccc3OC)(N3CCC[C@H]3c3ncco3)c3cc(C#N)ccc32)cc1 (stereo partly shown) and answer again.
> 8.00

For COCCN(C)Cc1ccc(OC)c(C2(N3CCC[C@H]3c3ncco3)C(=O)N(S(=O)(=O)c3ccc(OC)cc3)c3ccc(C#N)cc32)c1 (stereo partly shown) then?
7.00 to 8.00

Next molecule up: CCCNCc1ccc(OC)c(C2(N3C[C@H](O)C[C@H]3c3ncco3)C(=O)N(S(=O)(=O)c3ccc(OC)cc3)c3ccc(C#N)cc32)c1 (stereo partly shown)
> 8.00

Let us now turn to COc1ccc(S(=O)(=O)N2C(=O)C(c3cc(CN4CCN(CCO)CC4)ccc3OC)(N3C[C@H](OC(C)(C)C)C[C@H]3c3ncco3)c3cc(Cl)ccc32)cc1 (stereo partly shown)
7.00 to 8.00
